Target: Vitamin D3 receptor (Homo sapiens, UniProt P11473)
Sequence (P11473 whole entry): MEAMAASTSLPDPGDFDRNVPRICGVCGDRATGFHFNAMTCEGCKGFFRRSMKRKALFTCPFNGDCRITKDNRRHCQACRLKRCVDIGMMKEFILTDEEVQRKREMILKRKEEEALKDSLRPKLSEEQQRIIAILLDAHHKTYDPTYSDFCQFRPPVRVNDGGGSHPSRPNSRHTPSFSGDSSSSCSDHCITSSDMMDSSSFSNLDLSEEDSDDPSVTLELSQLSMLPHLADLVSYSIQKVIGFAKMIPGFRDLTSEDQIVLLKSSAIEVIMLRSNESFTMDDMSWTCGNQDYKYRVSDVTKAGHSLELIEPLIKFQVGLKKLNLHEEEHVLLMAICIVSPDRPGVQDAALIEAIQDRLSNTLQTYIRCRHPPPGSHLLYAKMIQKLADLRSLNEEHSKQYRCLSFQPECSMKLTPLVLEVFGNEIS
Assay: Agonist activity at human VDR in COS7 cells assessed as induction of transcriptional transactivation after 24 hrs by mouse osteopontin luciferase reporter gene assay
Assay type: functional, cell-based, COS-7
pEC50: −log10 of the molar value.
endpoint.label: pEC50

A = C=C1C[C@@H](C[C@@H](C)[C@H]2CC[C@H]3/C(=C/C=C4C[C@@H](O)C(=C)[C@H](O)C4)CCC[C@]23C)OC1=O
B = C=C1C[C@@H](C[C@H](C)[C@H]2CC[C@H]3/C(=C/C=C4C[C@@H](O)C(=C)[C@H](O)C4)CCC[C@]23C)OC1=O
C = C=C1C[C@H](C[C@H](C)[C@H]2CC[C@H]3/C(=C/C=C4C[C@@H](O)C(=C)[C@H](O)C4)CCC[C@]23C)OC1=O
D = C=C1C[C@H](C[C@@H](C)[C@H]2CC[C@H]3/C(=C/C=C4C[C@@H](O)C(=C)[C@H](O)C4)CCC[C@]23C)OC1=O
Prompt line: Rank the compounds listed above in increasing order of pEC50. Please write the labels in the order that was asked for.
Response line: A, D, C, B

Origin of values: ChEMBL document CHEMBL1144046
